Test system: Escherichia coli TOP10;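 note: peptides expressed intracellularly from a pBAD plasmid library in pooled LB shake-flask culture, induced with 0.3% L-arabinose, DNA abundance read by NGS, three biological replicates, DESeq2 with apeglm shrinkage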
protocol: shrunken log2 fold change of peptide-encoding DNA abundance (4.5 h post-induction vs induction); higher = less antimicrobial activity (less host growth inhibition)
condition-parameters: time post-induction: 4.5 h; library: site-saturation at positions 5, 18, 19, 20
Quick rule for you: shrunken log2 fold change at -0.07 or higher means true (1), lower means false (0).

Evaluate `RRIRKRPPRLPRPRPRPVLVPRP` : shrunken log2 fold change at minimum -0.07?
true (1)

Subsequent entry: `RRIRTRPPRLPRPRPRPIVCPRP`
false (0)

Subsequent entry: `RRIRERPPRLPRPRPRPDVKPRP`
false (0)

Subsequent entry: `RRIRNRPPRLPRPRPRPMWVPRP`
true (1)

Subsequent entry: `RRIRLRPPRLPRPRPRPSEWPRP`
true (1)

Subsequent entry: `RRIRRRPPRLPRPRPRPSCSPRP`
false (0)

Subsequent entry: `RRIRHRPPRLPRPRPRPDQIPRP`
true (1)

Subsequent entry: `RRIRIRPPRLPRPRPRPASNPRP`
false (0)

Subsequent entry: `RRIRVRPPRLPRPRPRPMSPPRP`
true (1)

Subsequent entry: `RRIRTRPPRLPRPRPRPGVWPRP`
true (1)

Subsequent entry: `RRIRRRPPRLPRPRPRPCDFPRP`
false (0)

Subsequent entry: `RRIRVRPPRLPRPRPRPLKVPRP`
false (0)

Subsequent entry: `RRIRERPPRLPRPRPRPRPQPRP`
true (1)

Subsequent entry: `RRIRKRPPRLPRPRPRPSCFPRP`
true (1)

Subsequent entry: `RRIRRRPPRLPRPRPRPDYEPRP`
false (0)

Subsequent entry: `RRIRNRPPRLPRPRPRPYMWPRP`
false (0)

Subsequent entry: `RRIRNRPPRLPRPRPRPYCTPRP`
false (0)

Subsequent entry: `RRIRFRPPRLPRPRPRPLVRPRP`
false (0)

Subsequent entry: `RRIRSRPPRLPRPRPRPNMIPRP`
false (0)

Subsequent entry: `RRIRFRPPRLPRPRPRPQPHPRP`
true (1)

Subsequent entry: `RRIRDRPPRLPRPRPRPRHEPRP`
true (1)

Subsequent entry: `RRIRYRPPRLPRPRPRPEARPRP`
true (1)

Subsequent entry: `RRIRPRPPRLPRPRPRPASGPRP`
true (1)

Subsequent entry: `RRIRHRPPRLPRPRPRPWTMPRP`
false (0)

Subsequent entry: `RRIRQRPPRLPRPRPRPPVEPRP`
true (1)

Subsequent entry: `RRIRGRPPRLPRPRPRPGLMPRP`
true (1)

Subsequent entry: `RRIRIRPPRLPRPRPRPHPYPRP`
true (1)

Subsequent entry: `RRIRYRPPRLPRPRPRPWKLPRP`
false (0)

Subsequent entry: `RRIRMRPPRLPRPRPRPNNHPRP`
false (0)

Subsequent entry: `RRIRGRPPRLPRPRPRPPYDPRP`
true (1)

Subsequent entry: `RRIRKRPPRLPRPRPRPTKMPRP`
true (1)
